These measurements were taken from patent US20240279318A1.

target: T1, AFP158/HLA-A*02:01 complex (human); experiment: SPR, KD ratio to AS170036 VL1VH1;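 further: crude scFv captured on a sensor chip, peptide–HLA complex passed over at several concentrations, association then buffer dissociation, KD derived from on- and off-rates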
T1 construct: flowed over the chip in SPR; also called AFP158 pro
RECORDED METRIC: Affinity increase (fold)
Reply with just the number (in fold).

LH98F (scFv, AS170036 VL1VH1 scFv mutein; also called AS170036 VL1VH1-VLH98F) scFv: QSALTQPRSVSGSPGQSVTISCAGTSSDVGSENYVSWYQQHPGKAPKLMIYQVNKRASGVPDRFSGSKSGNTASLTISGLQAEDEADYYCASYRSSDFNIVFGGGTKLTVLGGGGSGGGGSGGGGSEVQLVESGGGLVQPGGSLRLSCAASGFTFSSYAMSWVRQAPGKGLEWVSTINSGTGSPYYADSVKGRFTISRDNSKNTLYLQMNSLRAEDTAVYYCAKNFFDGSWFLGPPAMDYWGQGTLVTVSSHHHHHH; 3.3

Please find the next binder below.
Query block: Using the record for LH98L (scFv, AS170036 VL1VH1 scFv mutein) scFv: QSALTQPRSVSGSPGQSVTISCAGTSSDVGSENYVSWYQQHPGKAPKLMIYQVNKRASGVPDRFSGSKSGNTASLTISGLQAEDEADYYCASYRSSDLNIVFGGGTKLTVLGGGGSGGGGSGGGGSEVQLVESGGGLVQPGGSLRLSCAASGFTFSSYAMSWVRQAPGKGLEWVSTINSGTGSPYYADSVKGRFTISRDNSKNTLYLQMNSLRAEDTAVYYCAKNFFDGSWFLGPPAMDYWGQGTLVTVSSHHHHHH , report its Affinity increase.
Result block: 1.2
